- Test system: RXF 393 renal
- protocol.summary: NCI tumour cell line growth inhibition, 48 h
Entries and their TGI values follow.

Please review the following examples before continuing.
CC(=O)NC1=NC(=O)/C(=C/c2ccc(/C=C3/C(=O)N=C(NC(C)=O)N3C)cc2)N1C    > 100 µM
O=c1[nH]cnc2c(COCCO)c[nH]c12    > 100 µM
C=Cn1c([N+](=O)[O-])cnc1/C=C/c1ccc(C(=O)OCCN2CCOCC2)cc1    > 100 µM
O=c1[nH]c(NCc2ccc(Cl)cc2)nc2nc[nH]c12    > 100 µM
N/C1=C/C(=O)NC(=O)c2c(c3ccccc3oc2=O)C1    > 100 µM
Cc1ccc(-n2nnnc2-c2cnc(N3CCOCC3)nc2-c2cccc(C(F)(F)F)c2)cc1    > 14.5 µM
Cn1cc(S(=O)(=O)NC(=O)Nc2ccc(Cl)cc2)c(=O)c2ccc(F)cc21    > 100 µM
CC12CCC(CC1)C(C)(C)O2    56.9 µM
CC(=O)/C=C/c1ccc(OCc2ccc(Cl)cc2)cc1    > 1000 µM
CC(=O)OC1=CC2(OC(C)=O)CC(C)(C)C1C1C(=O)C=CC(=O)C12 (centres undefined)    > 100 µM

Exercise: Param item = COC1CC(N)C(O)C(C)O1 (centres undefined) ; retrieve measured TGI.
Solution: > 100 µM

Exercise: Param item = Br[C@@H]1[C@H]2c3nc4ccccc4nc3[C@@H]1C[C@H]2Br ; retrieve measured TGI.
Solution: 94.6 µM

Exercise: Param item = COC(=O)Nc1nc2ccc(S(=O)(=O)N3CCOCC3)cc2[nH]1 ; retrieve measured TGI.
Solution: > 100 µM

Exercise: Param item = CCCCCCNCc1cc(C(C)(C)C)cc(CNCCCCCC)c1O ; retrieve measured TGI.
Solution: 2.99 µM
